# assay_text: Lethal dose administered perorally in rats in various models of liver injuries
# Assay type: toxicity
# recorded_conditions: rat, in vivo, po
result_type: LD50 (mg/kg)
Report the figure in mg/kg without appending any unit label.

Query: I'd like to know its LD50. The compound in question is COc1ccn(C)c(=O)c1C#N [RICININE]
Reply: 80

###

Below is a list of entries, each paired with its recorded Protection value.
# assay_text: Hepatoprotective activity against glutamate oxaloacetate transaminase (GOT) for thioacetamide-induced toxicity in rats at 6 mg/kg dose for 7 days by ip administration
# Format: functional
# recorded_conditions: route intraperitoneal

Consider the worked cases shown below.
chemical_string: CCOC(=O)c1c(SC)nc(C)oc1=N
Protection: 26%
//
chemical_string: CCOC(=O)c1c(SC)nc(-c2ccccc2)oc1=N
Protection: 33%
//
chemical_string: CSc1nc(-c2ccccc2)oc(=N)c1C#N
Protection: 26%
//
chemical_string: CCOC(=O)c1c(SC)nc(C(F)(F)F)oc1=N
Protection: 66%

Query compound follows.
Query: I'd like to know its Protection. The compound in question is `N#Cc1c(N)oc(-c2ccccc2)n/c1=N\N`
Reply: 17%

###

# measured_on: Alkaline phosphatase, tissue-nonspecific isozyme (Rattus norvegicus) (UniProt P08289)
# Sequence (P08289 whole entry): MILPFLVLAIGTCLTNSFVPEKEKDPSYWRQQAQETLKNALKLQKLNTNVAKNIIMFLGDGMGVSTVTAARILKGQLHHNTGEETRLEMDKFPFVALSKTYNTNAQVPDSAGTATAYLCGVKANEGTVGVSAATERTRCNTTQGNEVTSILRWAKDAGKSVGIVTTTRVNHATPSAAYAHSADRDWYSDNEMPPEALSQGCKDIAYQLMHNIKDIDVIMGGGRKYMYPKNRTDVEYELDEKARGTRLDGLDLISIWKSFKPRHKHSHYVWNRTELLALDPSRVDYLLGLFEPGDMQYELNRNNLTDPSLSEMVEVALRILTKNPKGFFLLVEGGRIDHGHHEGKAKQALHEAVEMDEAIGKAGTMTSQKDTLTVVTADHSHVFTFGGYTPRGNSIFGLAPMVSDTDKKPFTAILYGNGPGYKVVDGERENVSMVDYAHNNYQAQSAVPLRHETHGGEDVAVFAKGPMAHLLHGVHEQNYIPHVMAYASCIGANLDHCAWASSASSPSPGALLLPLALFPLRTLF
# assay_text: Hepatoprotective activity against alkaline phosphatase (ALP) for thioacetamide-induced toxicity in rats at 6 mg/kg dose for 7 days by ip administration
# Type: functional, organism-based
# Design: dose 6 mg/kg
Protection under 30% gets YES, anything at or over 30% gets NO.

Below, 3 compounds whose answers are already recorded.
chemical_string: CCOC(=O)c1c(SC)nc(C)oc1=N
category_label: NO
--
chemical_string: CCOC(=O)c1c(SC)nc(C(F)(F)F)oc1=N
category_label: YES
--
chemical_string: N#Cc1c(N)oc(-c2ccccc2)n/c1=N\N
category_label: YES

Shifting focus to the compound that follows.
Query: For `CCOC(=O)c1c(SC)nc(-c2ccccc2)oc1=N` , is the recorded Protection below the cut-off of 30%?
Reply: NO

###

# measured_on: Alanine aminotransferase 1 (Rattus norvegicus)
# assay_text: Hepatoprotective activity against glutamate pyruvate transaminase (GTP) for thioacetamide-induced toxicity in rats at 6 mg/kg dose for 7 days by ip administration
# Assay type: functional, organism-based
# Design: dose 6 mg/kg
result_type: Protection (%)
Report the figure in % without appending any unit label.

chemical_string: N#Cc1c(N)oc(-c2ccccc2)n/c1=N\N
measured_on: Alanine aminotransferase 1 (Rattus norvegicus)
Protection [%]: 19

Query: I'd like to know its Protection. The compound in question is `CCOC(=O)c1c(SC)nc(-c2ccccc2)oc1=N`
Reply: 39

Query: Check `CSc1nc(-c2ccccc2)oc(=N)c1C#N` too.
Reply: 19

Query: Check `CCOC(=O)c1c(SC)nc(C)oc1=N` too.
Reply: 29

Query: Check `CCOC(=O)c1c(SC)nc(C(F)(F)F)oc1=N` too.
Reply: 54
